Test system: MDA-MB-435s (human melanoma)
Protocol description: In vitro cytotoxicity, MTT test
Format: cell-based
Experimental parameters: MTT, 72 h, read-out: Cytotoxicity IC50, MDA-MB-435s
Reported pIC50 is given for each of the following molecules.
Please keep in mind that pIC50 is minus log10 of the molar concentration; only the number is needed.

Example entries begin here.
Molecule: COCCN(CCOC)C(=O)c1cc2ccc3c(Br)c(C4=CCCCC4)[se]c3c2oc1=O [Compound I-21]
pIC50: 4.12

Molecule: O=C(c1cc2ccc3c(Br)c(C4=CCCCC4)[se]c3c2oc1=O)N1CCCCC1 [Compound I-19]
pIC50: 4.29

Molecule: COC1(c2[se]c3c(ccc4cc(C(=O)O)c(=O)oc43)c2Br)CCCCC1 [Compound I-12]
pIC50: 3.90

Recall the recorded pIC50 for COC1(c2[se]c3c(ccc4cc(C(=O)N5CCOCC5)c(=O)oc43)c2Br)CCCCC1 [Compound I-22] with MDA-MB-435s (human melanoma) and state it.
4.37

Recall the recorded pIC50 for COC(=O)c1cc2ccc3c(Br)c(CN4CCOCC4)[se]c3c2oc1=O [Compound I-9] with MDA-MB-435s (human melanoma) and state it.
4.17

Recall the recorded pIC50 for O=C(O)c1cc2ccc3c(Br)c(C4(O)CCCCC4)[se]c3c2oc1=O [Compound I-11] with MDA-MB-435s (human melanoma) and state it.
3.68

Recall the recorded pIC50 for COC(=O)c1cc2ccc3c(Br)c(C4(O)CCCCC4)[se]c3c2oc1=O [Compound I-3] with MDA-MB-435s (human melanoma) and state it.
4.19

###

Reported pIC50 is given for each of the following compounds.
Test system: HepG2 (human hepatocellular carcinoma)
Protocol description: In vitro cytotoxicity, MTT test
Type: cell-based
Experimental parameters: HepG2, 72 h, read-out: Cytotoxicity IC50, HepG2
pIC50: −log10 of the molar value.

Example entries begin here.
Compound: CN1CCN(Cc2[se]c3c(ccc4cc(C(=O)O)c(=O)oc43)c2Br)CC1.Cl [Compound I-15, hydrochloride]
pIC50: < 3.72
--
Compound: Cl.O=C(O)c1cc2ccc3c(Br)c(CN4CCCCC4)[se]c3c2oc1=O [Compound I-13, hydrochloride]
pIC50: < 3.71

Next compound, pIC50 to be filled in.
# lookup: pIC50 of Cl.O=C(O)c1cc2ccc3c(Br)c(CN4CCOCC4)[se]c3c2oc1=O [Compound I-14, hydrochloride]
3.97

###

Reported IC50 at 24 h is given for each of the following molecules.
Protocol description: Basal cytotoxicity test, Neutral Red Uptake (NRU) assay
Assay type: cell-based
Experimental parameters: normal mouse embryo fibroblasts; read-out: Cytotoxicity IC50, 3T3

Example entries begin here.
Cpd smiles: COC(=O)c1cc2ccc3c(Br)c(C(C)(C)O)[se]c3c2oc1=O
IC50 at 24 h: 225 µM
--
Cpd smiles: COC(=O)c1cc2ccc3c(Br)c(CN4CCN(C)CC4)[se]c3c2oc1=O
IC50 at 24 h: 86 µM
--
Cpd smiles: CCCCCCCCOC(=O)c1cc2ccc3c(Br)c(C4=CCCCC4)[se]c3c2oc1=O
IC50 at 24 h: > 177 µM
--
Cpd smiles: COC1(c2[se]c3c(ccc4cc(C(=O)O)c(=O)oc43)c2Br)CCCCC1
IC50 at 24 h: 213 µM

Next molecule, IC50 at 24 h to be filled in.
# lookup: IC50 at 24 h of COC(=O)c1cc2ccc3c(Br)c(C4(O)CCCCC4)[se]c3c2oc1=O
207 µM

###

Test system: MDA-MB-435s (human melanoma)
Protocol description: In vitro cytotoxicity, MTT test
Type: cell-based
Experimental parameters: MTT, 72 h, read-out: Cytotoxicity IC50, MDA-MB-435s
Reported pIC50 is given for each of the following compounds.
Please keep in mind that pIC50 is minus log10 of the molar concentration; only the number is needed.

Cpd smiles: COC(=O)c1cc2ccc3c(Br)c(C(C)(C)O)[se]c3c2oc1=O
pIC50: 4.02
--
Cpd smiles: O=C(c1cc2ccc3c(Br)c(C4=CCCCC4)[se]c3c2oc1=O)N1CCOCC1
pIC50: 4.89
--
Cpd smiles: COC(=O)c1cc2ccc3c(Br)c(C4=CCCC4)[se]c3c2oc1=O
pIC50: 3.85
--
Cpd smiles: CCCCCCCCCCOC(=O)c1cc2ccc3c(Br)c(C4(O)CCCCC4)[se]c3c2oc1=O
pIC50: 3.82

Next compound, pIC50 to be filled in.
Recall the recorded pIC50 for COC(=O)c1cc2ccc3c(Br)c(C4(OC)CCCCC4)[se]c3c2oc1=O with MDA-MB-435s (human melanoma) and state it.
3.99

###

Tested on: SH-SY5Y (human neuroblastoma)
Protocol description: In vitro cytotoxicity, MTT test
Format: cell-based
Experimental parameters: MTT, 72 h; read-out: Cytotoxicity IC50, SHSY5Y
Value kind: IC50 (µM)
Note: unit µM is implicit; provide only the numeric part.

# lookup: IC50 of COC(=O)c1cc2ccc3c(Br)c(C4(O)CCCCC4)[se]c3c2oc1=O
19

###

Reported IC50 is given for each of the following compounds.
System: HepG2 (human hepatocellular carcinoma)
Protocol description: In vitro cytotoxicity, MTT test
Format: cell-based
Experimental parameters: HepG2, MTT, 72 h, read-out: Cytotoxicity IC50, HepG2
Procedure: Anticancer activity of selenopheno[h]chromenes was tested in vitro using cytotoxicity assay. […] About 2-9·10^4 cells/mL (depending on line nature) were placed in 96-well plates immediately after compounds were added to the wells. Untreated cells were used as a control. The plates were incubated for 72 h, 37° C., 5% CO2. The number of surviving cells was determined using 3-(4,5-dimethylthiazol-2-yl)-2,5-diphenyltetrazolinium bromide (MTT). […]

Cpd smiles: COCCN(CCOC)C(=O)c1cc2ccc3c(Br)c(C4=CCCCC4)[se]c3c2oc1=O
IC50: 51 µM
//
Cpd smiles: COC1(c2[se]c3c(ccc4cc(C(=O)O[C@H]5CC[C@@]6(C)C(=CC[C@H]7[C@@H]8CC[C@H]([C@H](C)CCCC(C)C)[C@@]8(C)CC[C@@H]76)C5)c(=O)oc43)c2Br)CCCCC1
IC50: > 117 µM

# lookup: IC50 of COC(=O)c1cc2ccc3c(Br)c(CN4CCOCC4)[se]c3c2oc1=O
90 µM

###

Reported pIC50 is given for each of the following molecules.
System: MDA-MB-435s (human melanoma)
Protocol description: In vitro cytotoxicity, MTT test
Format: cell-based
Experimental parameters: 72 h, read-out: Cytotoxicity IC50, MDA-MB-435s
Please keep in mind that pIC50 is minus log10 of the molar concentration; only the number is needed.

Molecule: Cl.O=C(O)c1cc2ccc3c(Br)c(CN4CCCCC4)[se]c3c2oc1=O [Compound I-13, hydrochloride]
System: MDA-MB-435s (human melanoma)
pIC50: 3.74

# lookup: pIC50 of Cl.O=C(O)c1cc2ccc3c(Br)c(CN4CCOCC4)[se]c3c2oc1=O [Compound I-14, hydrochloride]
3.81

###

Protocol description: Basal cytotoxicity test, Neutral Red Uptake (NRU) assay
Format: cell-based
Experimental parameters: normal mouse embryo fibroblasts; read-out: Cytotoxicity IC50, 3T3
Value kind: IC50 at 24 h

Example entries begin here.
Cpd smiles: O=C(O)c1cc2ccc3c(Br)c(C4(O)CCCCC4)[se]c3c2oc1=O
Readout value: > 213 µM
//
Cpd smiles: O=C(c1cc2ccc3c(Br)c(C4=CCCCC4)[se]c3c2oc1=O)N1CCOCC1
Readout value: > 192 µM
//
Cpd smiles: CCCCCCCCCCOC(=O)c1cc2ccc3c(Br)c(C4(O)CCCCC4)[se]c3c2oc1=O
Readout value: > 164 µM
//
Cpd smiles: COC(=O)c1cc2ccc3c(Br)c(C4=CCCC4)[se]c3c2oc1=O
Readout value: > 235 µM
//
Cpd smiles: COC1(c2[se]c3c(ccc4cc(C(=O)O[C@H]5CC[C@@]6(C)C(=CC[C@H]7[C@@H]8CC[C@H]([C@H](C)CCCC(C)C)[C@@]8(C)CC[C@@H]76)C5)c(=O)oc43)c2Br)CCCCC1
Readout value: > 117 µM

# lookup: IC50 at 24 h of CC(C)CCC[C@@H](C)[C@H]1CC[C@H]2[C@@H]3CC=C4C[C@@H](OC(=O)c5cc6ccc7c(Br)c(C8=CCCCC8)[se]c7c6oc5=O)CC[C@]4(C)[C@H]3CC[C@]12C
> 117 µM

###

Reported pIC50 is given for each of the following molecules.
Test system: MDA-MB-435s (human melanoma)
Protocol description: In vitro cytotoxicity, MTT test
Assay type: cell-based
Experimental parameters: MTT, 72 h, read-out: Cytotoxicity IC50, MDA-MB-435s
Procedure: Anticancer activity of selenopheno[h]chromenes was tested in vitro using cytotoxicity assay. […] About 2-9·10^4 cells/mL (depending on line nature) were placed in 96-well plates immediately after compounds were added to the wells. Untreated cells were used as a control. The plates were incubated for 72 h, 37° C., 5% CO2. The number of surviving cells was determined using 3-(4,5-dimethylthiazol-2-yl)-2,5-diphenyltetrazolinium bromide (MTT). […]
pIC50: −log10 of the molar value.

Example entries begin here.
Molecule: CCCCCCCCOC(=O)c1cc2ccc3c(Br)c(C4=CCCCC4)[se]c3c2oc1=O [Compound I-16]
pIC50: < 3.91
//
Molecule: COC(=O)c1cc2ccc3c(Br)c(CN4CCN(C)CC4)[se]c3c2oc1=O [Compound I-10]
pIC50: < 3.73

Next molecule, pIC50 to be filled in.
# lookup: pIC50 of COC1(c2[se]c3c(ccc4cc(C(=O)O[C@H]5CC[C@@]6(C)C(=CC[C@H]7[C@@H]8CC[C@H]([C@H](C)CCCC(C)C)[C@@]8(C)CC[C@@H]76)C5)c(=O)oc43)c2Br)CCCCC1 [Compound I-18]
< 3.93
